- protocol: gradient 5% acetonitrile 3 min, to 50% in 2 min, to 85% in 15 min, held 3 min, 100 µL/min
- study conditions: column: Zorbax Extend-C18 2.1 x 50 mm; eluents: water / acetonitrile, 0.1% formic acid
measurement kind: RP-LC retention time (s)
Answers are plain numbers, in s.

Example entries begin here.
CNC(=O)c1nn(-c2ccc(OC)c(OC)c2)c(OC)cc1=O = 590
CCOC(=O)C1=C(CN2CCN(C)CC2)NC(=O)NC1c1ccc(OC(C)C)cc1 (centres undefined) = 636

Provide the reported RP-LC retention time of each entry below, same order.
1. Cc1ccc(C)c(N2CCN(c3ccnc(SCC(=O)Nc4ccc(C(C)C)cc4)n3)CC2)c1
2. CCOC(=O)Cc1c(C)nc2c(-c3ccccc3)cnn2c1C
3. Cc1cc(Cl)ccc1N1C(=O)CN(S(C)(=O)=O)CC1(C)C(=O)NCc1ccc(F)cc1 (centres undefined)
4. COc1cccc(-n2c(=O)c3sccc3n(Cc3nc(-c4ccccc4C)no3)c2=O)c1
5. NS(=O)(=O)c1cccnc1Nc1cccc(Br)c1
6. CNc1nc(NCc2ccc(NC(=O)c3ccc(F)cc3)cc2)c2ccccc2n1
7. Brc1cccc(-c2noc(CSc3nccn3-c3ccccc3)n2)c1
8. CCCS(=O)(=O)N1CCOc2ccc(NC(=O)NCC)cc2C1

Solution:
1: 1060; 2: 1000; 3: 888; 4: 1000; 5: 889; 6: 692; 7: 1020; 8: 696

Provide the reported RP-LC retention time of each entry below, same order.
1. O=C(Cn1cccc(-c2nc(-c3ccc(F)cc3)no2)c1=O)Nc1ccc(Br)cc1
2. O=C1COc2ccc(Cl)cc2N1Cc1nc(-c2ccc(OC(F)(F)F)cc2)no1
3. Cc1cc(C)n(Cc2ccc(C(=O)N3CCC(c4noc(-c5cccnc5)n4)C3)o2)n1 (centres undefined)
4. CC(C)CNc1nc2ccncc2n(Cc2ccccc2)c1=O
5. O=C1CCc2cc(NC(=O)c3ccc(-c4ccccc4)cc3)ccc2N1

Solution:
992
1210
696
672
760

###

Kindly state RP-LC retention time for each of the entries shown.
- protocol: gradient 5% acetonitrile 3 min, to 50% in 2 min, to 85% in 15 min, held 3 min, 100 µL/min
- study conditions: column: Zorbax Extend-C18 2.1 x 50 mm; eluents: water / acetonitrile, 0.1% formic acid
Give bare numbers, in s.

Example entries begin here.
C[C@H]1CCCC(=O)CCC/C=C/c2c(O)cc(O)cc2C(=O)O1 = 888
CCNC(=O)C1CCN(C2=NS(=O)(=O)C(c3ccc(C(C)C)cc3)=C2C)CC1 = 812
COc1ccc(-c2nnc(COc3ccc(NC(=O)c4ccc(Cl)nc4)cc3)o2)cc1 = 877
CC(=O)c1ccc(NC(=O)CN2C(=O)NC3(CCC(C)CC3)C2=O)cc1 (stereo not given) = 762
CN(CCc1noc(-c2ccccc2)n1)C(=O)Nc1ccccc1Cl = 943
COc1ccc(NC(=O)C2CCCN(c3nc4ccccc4nc3C(F)(F)F)C2)c(OC)c1 (stereo not given) = 1190

Provide the reported RP-LC retention time of each entry below, same order.
1. COc1ccc2[nH]cc(CCN3CC(C(=O)Nc4cc(C)ccc4C)CC3=O)c2c1 (stereo not given)
2. Cc1ccc(-c2nnc(Cc3nc(-c4ccccn4)no3)o2)cc1F
3. Cc1ccccc1CN1C(=O)CN(S(=O)(=O)c2ccccc2)CC1(C)C(=O)NCc1ccccc1 (stereo not given)
4. COc1cccc(NC(=O)NCCc2nc3cccnc3n2C2CCCC2)c1
5. CCc1noc(NC(C)=O)c1-c1ccc(OC)c(S(=O)(=O)Nc2ccc(F)c(F)c2)c1
6. COc1ccc(-c2noc(-c3nnn4c3COC(c3ccc(C)cc3C)C4)n2)cc1 (stereo not given)
7. O=C(Nc1ccc(OC(F)(F)F)cc1)C1CCCN(C(=O)c2cc(-c3ccncc3)n[nH]2)C1 (stereo not given)

Solution:
1. 774
2. 822
3. 905
4. 696
5. 792
6. 1250
7. 692

Provide the reported RP-LC retention time of each entry below, same order.
1. O=S(=O)(Cc1ccccc1)N1CCC(OCCOCc2ccccc2)CC1
2. COc1ccc(-c2csc(CN3CCN(C(=O)C4CC4)CC3)n2)cc1
3. CCN1C=C(C(=O)OCc2ccccc2Cl)C(C)=NS1(=O)=O
4. CC1=C(c2ccc(C)cc2)S(=O)(=O)N=C1N1CCCN(C(=O)c2cccc(C#N)c2)CC1
5. CC(C)=CC1C(C(=O)O)C1(C)C (stereo not given)

Solution:
1. 1040
2. 599
3. 1010
4. 885
5. 808

Provide the reported RP-LC retention time of each entry below, same order.
1. CCNc1nc(C)cc(N2CCN(S(=O)(=O)c3cccc(Cl)c3)CC2)n1
2. Cc1ccn2cc(-c3ccc(NC(=O)/C=C/c4ccccc4)cc3)nc2n1

Solution:
1: 725; 2: 673

###

- protocol: gradient 5% acetonitrile 3 min, to 50% in 2 min, to 85% in 15 min, held 3 min, 100 µL/min
- study conditions: column: Zorbax Extend-C18 2.1 x 50 mm; eluents: water / acetonitrile, 0.1% formic acid
measurement kind: RP-LC retention time (s)
Answers are plain numbers, in s.

Example entries begin here.
CCN1CCN(CCNC(=O)c2cc(=O)n3c(nc4ccccc43)s2)CC1 = 604
O=C(C1=C2CCCN2c2ccccc2S1(=O)=O)N1CCN(c2ccc(F)cc2)CC1 = 796
O=C(C1CCCCC1)N1CCN(c2cc(-c3ccc(Cl)cc3)[nH]n2)CC1 = 910
C=CCc1cc(C)ccc1OCC(O)Cn1cnc2ccccc21 (stereo not given) = 630

Reported RP-LC retention time ( O=C(Nc1ccc2c(c1)OCCO2)N1CCC(n2c(-c3ccoc3)nc3cccnc32)C1 (stereo not given) ) = 648

###

- protocol: gradient 5% acetonitrile 3 min, to 50% in 2 min, to 85% in 15 min, held 3 min, 100 µL/min
- study conditions: column: Zorbax Extend-C18 2.1 x 50 mm; eluents: water / acetonitrile, 0.1% formic acid
Kindly state RP-LC retention time for each of the entries shown.
Give bare numbers, in s.

Cc1cccc(NC(=O)Cc2c(C)n(C)c3nc(-c4ccccc4)nn3c2=O)c1 = 824
Cc1cccc(Cn2nc3ccc(S(=O)(=O)N4CCC(C)CC4)cn3c2=O)c1 = 1040
Cc1nc(N2CCN(C(=O)Nc3cccc(C(F)(F)F)c3)CC2)cc(-n2cccn2)n1 = 947
O=S(=O)(c1ccccc1F)N1CCN(Cc2cccc(F)c2)C2(CCOCC2)C1 = 807

// next item, RP-LC retention time requested
Reported RP-LC retention time ( CCc1ccc(S(=O)(=O)N2c3ccccc3CC2c2nnc(C3CCOCC3)o2)cc1 (stereo not given) ) = 948

###

- protocol: gradient 5% acetonitrile 3 min, to 50% in 2 min, to 85% in 15 min, held 3 min, 100 µL/min
- study conditions: column: Zorbax Extend-C18 2.1 x 50 mm; eluents: water / acetonitrile, 0.1% formic acid
Kindly state RP-LC retention time for each of the entries shown.
Record the result as a number with its unit.

Provide the reported RP-LC retention time of each entry below, same order.
1. O=C(c1ccnnc1)N1C[C@@H](COCC2CC2)[C@H](c2ccncc2)C1
2. COCCCNC(=O)CCC[C@@H]1[C@H]2CCCN3CCC[C@@H](CN1C)[C@@H]23
3. CCC(C(=O)Nc1ccc(-c2nc(Cn3nc(C)cc3C)c(C)o2)cc1)c1ccccc1 (centres undefined)

Solution:
1. 570 s
2. 709 s
3. 1050 s

Provide the reported RP-LC retention time of each entry below, same order.
1. COc1ccc(CNC(=O)CN2C(=O)NC(c3ccc(Cl)cc3)C3=C2COC3=O)cc1 (centres undefined)
2. COc1ccc(CN2CC3(CCN(S(=O)(=O)c4ccccc4Cl)CC3)C2=O)cc1

Solution:
1. 780 s
2. 913 s

Provide the reported RP-LC retention time of each entry below, same order.
1. COc1ccc(OC)c(S(=O)(=O)N2CCC(Cn3c(C)cnc3C)C2)c1 (centres undefined)
2. Cc1cc(C)cc(NS(=O)(=O)c2ccc(-c3nnc(C4CCC4)o3)o2)c1
3. COCCn1cc(CCNC(=O)Nc2cc(Cl)cc(Cl)c2)c2cccnc21
4. CCC(=O)N(C1CCOCC1)C1CCN(S(=O)(=O)c2ccc(F)cc2)CC1

Solution:
1: 626 s; 2: 996 s; 3: 893 s; 4: 792 s

###

Kindly state RP-LC retention time for each of the entries shown.
- protocol: gradient 5% acetonitrile 3 min, to 50% in 2 min, to 85% in 15 min, held 3 min, 100 µL/min
- study conditions: column: Zorbax Extend-C18 2.1 x 50 mm; eluents: water / acetonitrile, 0.1% formic acid
One number for each entry, in s.

Provide the reported RP-LC retention time of each entry below, same order.
1. CCCN(CC1CCOC1)C(=O)Nc1cccc(Cl)c1F (stereo not given)
2. COc1ccc(-c2nc(Cn3ccn4nc(-c5ccc(OC)c(OC)c5)cc4c3=O)c(C)o2)cc1
3. COCCNC(=O)Nc1nc(-c2ccccc2)c(C(C)=O)s1
4. COCCOCC(=O)NCC1CCCCC(=O)N1 (stereo not given)
5. O=C(Nc1ccc(F)cc1F)N1CCN(Cc2nc3cc(Cl)ccc3o2)CC1

Solution:
1: 853; 2: 968; 3: 685; 4: 576; 5: 763

Provide the reported RP-LC retention time of each entry below, same order.
1. COc1cccc(CNC(=O)CN2CCN(Cc3ccc(F)cc3)C2=O)c1OC
2. O=C(Nc1ccc2c(c1)OCCO2)C1CCN(c2cnc3nccnc3c2)CC1
3. CCOc1ccc(S(=O)(=O)NC2CCN(c3ccc(=O)n(CC4CC4)n3)C2)cc1 (stereo not given)
4. CC(NC(=O)C1CCN(Cc2cn(C)c3ccc(Cl)cc23)CC1)c1ccccc1 (stereo not given)

Solution:
[772, 666, 834, 727]

Reported RP-LC retention time ( CCc1nccn1Cc1noc(-c2cccc(Cl)c2)n1 ) = 656
